System: SF-268 CNS
experiment_description: NCI tumour cell line growth inhibition, 48 h
Overview of recorded TGI for various compounds

{"compound": "CC(C)(C)C1CCC2c3c([nH]c4ccccc34)C3C(=O)N(c4cccc(Cl)c4)C(=O)C3C2C1 (stereo unspecified)", "TGI": "32.4 µM"}
{"compound": "Nc1sccc1S(=O)(=O)c1ccsc1N", "TGI": "> 100 µM"}
{"compound": "CC(C)=C1C(=O)C[C@]2(C)C/C=C(\\C)CC/C=C(\\C)CC[C@@H]12", "TGI": "18 µM"}
{"compound": "Cc1cc(C)nc(NC(=S)Nc2cccc(Cl)c2)c1", "TGI": "> 100 µM"}
{"compound": "Nc1cc(OCc2ccccc2)c(OCc2ccccc2)cc1C=O", "TGI": "> 100 µM"}
{"compound": "N#Cc1cc2c(n(C3OC(CO)C(O)C(O)C3O)c1=S)CCCCC2 (stereo unspecified)", "TGI": "> 100 µM"}
{"compound": "COc1ccc(NC(=O)CSc2nnc(Cc3ccccc3)o2)cc1", "TGI": "> 100 µM"}
{"compound": "O=C(CN1CCOCC1)c1ccc2[nH]c(=O)oc2c1", "TGI": "> 100 µM"}
{"compound": "COc1cc(C2=Nc3c/c(=C\\c4c(O)[nH]c5ccc(Cl)cc45)ccc3=N2)cc(OC)c1OC", "TGI": "3.78 µM"}
{"compound": "CC(=O)NC(ON1C(=O)COc2ccccc21)C(Cl)(Cl)Cl (stereo unspecified)", "TGI": "> 100 µM"}
{"compound": "NCCCCN", "TGI": "> 100 µM"}

---

Tested on: OVCAR-8 ovarian
experiment_description: NCI tumour cell line growth inhibition, 48 h

{"compound": "Cc1cc(O)c2c(c1O)C(=O)c1c(O)ccc(O)c1C2=O", "assayed_system": "OVCAR-8 ovarian", "TGI": "> 100 µM"}
{"compound": "CCOC(=O)c1ccc(-c2cccs2)n1C", "assayed_system": "OVCAR-8 ovarian", "TGI": "> 100 µM"}
{"compound": "O=C(O)c1ccc([N+](=O)[O-])c(P(=O)(O)O)c1", "assayed_system": "OVCAR-8 ovarian", "TGI": "> 100 µM"}
{"compound": "CC(C)Cc1ccc(C(C)/C=C2\\CCC(CN3CCOCC3)C2=O)cc1 (configuration not stated)", "assayed_system": "OVCAR-8 ovarian", "TGI": "12.3 µM"}
{"compound": "O=C1C(=O)c2ccccc2C=C1[N+](=O)[O-]", "assayed_system": "OVCAR-8 ovarian", "TGI": "> 100 µM"}
{"compound": "C[C@@]12C[C@@H](c3ccccc3O1)N1CCSC1=N2", "assayed_system": "OVCAR-8 ovarian", "TGI": "> 100 µM"}
{"compound": "COc1cc2c3c(n(CCCN=[N+]=[N-])c(=O)c2cc1OC)-c1ccc(N)cc1C3=O", "assayed_system": "OVCAR-8 ovarian", "TGI": "1.9 µM"}
{"compound": "CC(C)=CCC/C(C)=C/CC/C(C)=C/[C@@H]1[C@@H](CO)[C@]1(C)CC/C=C(\\C)CCC=C(C)C", "assayed_system": "OVCAR-8 ovarian", "TGI": "32.7 µM"}
{"compound": "COC(=O)C1C(=O)O[C@@H](c2ccc(OC)cc2)C1C(=O)OC (some centres not stated)", "assayed_system": "OVCAR-8 ovarian", "TGI": "> 100 µM"}
{"compound": "C=C1C(=O)O[C@H]2[C@H]1CC/C(COC(=O)NCc1c[nH]c3ccc(OC)cc13)=C\\CC[C@@]1(C)O[C@@H]21", "assayed_system": "OVCAR-8 ovarian", "TGI": "5.53 µM"}
{"compound": "CCC[CH2][Sn]([CH2]CCC)([O]C(=O)c1cc(OC)c(OC)c(OC)c1)[O]C(=O)c1cc(OC)c(OC)c(OC)c1", "assayed_system": "OVCAR-8 ovarian", "TGI": "3.37 µM"}
{"compound": "COc1cc(/C=C2/C[C@H]3[C@@H]4CCC5=CC(=O)CC[C@]5(C)[C@H]4CC[C@]3(C)NC2=O)cc(OC)c1OC", "assayed_system": "OVCAR-8 ovarian", "TGI": "70.7 µM"}
{"compound": "CCOP(=O)(OCC)/C(=C/c1ccccc1)CC(C)=O", "assayed_system": "OVCAR-8 ovarian", "TGI": "> 100 µM"}
{"compound": "CSc1c(C#N)c(O)n(-c2ccc(Cl)cc2)c(=O)c1C#N", "assayed_system": "OVCAR-8 ovarian", "TGI": "> 100 µM"}
{"compound": "O=C(CC(=O)C(=O)CC(=O)OCc1ccccc1)OCc1ccccc1", "assayed_system": "OVCAR-8 ovarian", "TGI": "> 100 µM"}
{"compound": "O=S1(=O)COc2ccccc2-c2ncncc21", "assayed_system": "OVCAR-8 ovarian", "TGI": "> 100 µM"}
{"compound": "COC(=O)C1=C(C(=O)Nc2cccnc2)C2OC1(C(Cc1ccccc1)Oc1ccccc1)C1OC21 (configuration not stated)", "assayed_system": "OVCAR-8 ovarian", "TGI": "22.8 µM"}
{"compound": "Nc1ccccc1S(=O)c1ccccc1 (configuration not stated)", "assayed_system": "OVCAR-8 ovarian", "TGI": "> 100 µM"}
{"compound": "COc1ccc(C2=C(Br)C(=O)OC2)cc1Cl", "assayed_system": "OVCAR-8 ovarian", "TGI": "> 52.7 µM"}
{"compound": "CCOC(=O)C(C)OC(=O)c1ccc(C)cc1 (configuration not stated)", "assayed_system": "OVCAR-8 ovarian", "TGI": "> 100 µM"}
{"compound": "NCC(=O)Nc1ccc(-n2nc(C(F)(F)F)cc2-c2ccc3c(ccc4ccccc43)c2)cc1", "assayed_system": "OVCAR-8 ovarian", "TGI": "3.15 µM"}
{"compound": "CCOC(=O)CCC(NC(=O)N1CCN(c2c(C)nc(C)[nH]c2=O)CC1)C(=O)OCC (configuration not stated)", "assayed_system": "OVCAR-8 ovarian", "TGI": "> 100 µM"}
{"compound": "Nn1c(-c2ccccc2Nc2ccccc2-c2n[nH]c(=S)n2N)n[nH]c1=S", "assayed_system": "OVCAR-8 ovarian", "TGI": "> 50 µM"}
{"compound": "COc1ccc(-c2cn3c(nc4ccccc43)c(C)n2)cc1", "assayed_system": "OVCAR-8 ovarian", "TGI": "> 96.6 µM"}
{"compound": "Oc1c(Cl)cc(C(c2cc(Cl)c(O)c(Cl)c2)C(c2cc(Cl)c(O)c(Cl)c2)c2cc(Cl)c(O)c(Cl)c2)cc1Cl", "assayed_system": "OVCAR-8 ovarian", "TGI": "22.3 µM"}
{"compound": "CCOC(=O)CC(=O)N(c1ccc(OC)cc1)C(C(=O)OC)c1ccccc1 (configuration not stated)", "assayed_system": "OVCAR-8 ovarian", "TGI": "> 100 µM"}
{"compound": "Cn1c(O)c(C=N)c(=O)n(C)c1=O", "assayed_system": "OVCAR-8 ovarian", "TGI": "> 100 µM"}
{"compound": "O=S1Cc2ccccc2CS1 (configuration not stated)", "assayed_system": "OVCAR-8 ovarian", "TGI": "28.7 µM"}
{"compound": "CCCCC(SC(=S)N(CC)CC)C(=O)Nc1nc(CC(=O)OCC)cs1 (configuration not stated)", "assayed_system": "OVCAR-8 ovarian", "TGI": "> 100 µM"}
{"compound": "COC(OC)C1(c2ccccc2)Oc2ccccc2C1=O (configuration not stated)", "assayed_system": "OVCAR-8 ovarian", "TGI": "> 100 µM"}
{"compound": "COc1cccc(N=N/C(=N/NC(=O)c2cc(Cl)ccc2O)c2ccc(N(CCC#N)CCC#N)cc2C)c1", "assayed_system": "OVCAR-8 ovarian", "TGI": "55.3 µM"}
{"compound": "NC1=NN(c2ccccc2)C(=O)C1C(=O)C(=O)NC1C2CC3CC(C2)CC1C3 (configuration not stated)", "assayed_system": "OVCAR-8 ovarian", "TGI": "> 100 µM"}
{"compound": "Clc1ccc(NCc2nnc(COc3ccc(OCc4nnc(CNc5ccc(Cl)cc5)o4)c(Cl)c3)o2)cc1", "assayed_system": "OVCAR-8 ovarian", "TGI": "> 100 µM"}
{"compound": "NC(N)=NS(=O)(=O)c1ccc(Nc2c3ccccc3nc3ccc(C(=O)Nc4ccc(S(N)(=O)=O)cc4)cc23)cc1", "assayed_system": "OVCAR-8 ovarian", "TGI": "> 100 µM"}
{"compound": "C/C(=C\\CNc1ncnc2nc(Cl)[nH]c12)CO", "assayed_system": "OVCAR-8 ovarian", "TGI": "> 100 µM"}
{"compound": "COc1ccc(C2Cc3cc(OC)c(OC)c(OC)c3C2=O)cc1 (configuration not stated)", "assayed_system": "OVCAR-8 ovarian", "TGI": "> 100 µM"}
{"compound": "c1ccc2c(c1)nnn1c3cnccc3nc21", "assayed_system": "OVCAR-8 ovarian", "TGI": "> 100 µM"}
{"compound": "CCCCCCOC(=O)C(N)Cc1ccc(OC)cc1 (configuration not stated)", "assayed_system": "OVCAR-8 ovarian", "TGI": "> 100 µM"}
{"compound": "O=C(COC(c1ccc(F)cc1)c1ccc(F)cc1)N1CCN(CCCc2ccccc2)CC1", "assayed_system": "OVCAR-8 ovarian", "TGI": "14.6 µM"}
{"compound": "CC(=O)OCC1OC(O[C@@H]2C[C@H]3C(C)(C)[C@H](OC(C)=O)CC[C@]3(C)[C@H]3CC[C@@]45C[C@H](O)C[C@H](C)[C@@H]4CC=C5[C@@]32C)C(O)C(O)C1O (some centres not stated)", "assayed_system": "OVCAR-8 ovarian", "TGI": "17.4 µM"}
{"compound": "OCC1C(O)C(O)[C@@H]2SCCN12 (some centres not stated)", "assayed_system": "OVCAR-8 ovarian", "TGI": "> 100 µM"}
{"compound": "COC(=O)C(C(=O)C(=O)Nc1c(Cl)cc([N+](=O)[O-])cc1Cl)c1nc2cc(C)c(C)cc2[nH]c1=O (configuration not stated)", "assayed_system": "OVCAR-8 ovarian", "TGI": "> 100 µM"}
